Answer each item with its documented SI PC3.
Test system: PC3 cells
Measurement protocol: MTT assay, PC3
Assay type: cell-based, human
Setup conditions: SI = IC50 for normal cell line (HaCaT)/IC50 cancer cell line
One number for each entry.

Below: 3 compounds and their reported SI PC3.
| Compound | Subject of test | SI PC3 |
| --- | --- | --- |
| C/C=C/C(=O)N1CCCC2CN(c3c(F)cc4c(=O)c(C(=O)O)cn(C5CC5)c4c3OC)CC21 (stereo not drawn) | PC3 cells | 2.7 |
| CCCCCCCCCCCCCCCCCC(=O)N1CCCC2CN(c3c(F)cc4c(=O)c(C(=O)O)cn(C5CC5)c4c3OC)CC21 (stereo not drawn) [Compound 16m] | PC3 cells | 34.0 |
| COc1c(N2CC3CCCN(C(=O)/C=C(\C)CCC=C(C)C)C3C2)c(F)cc2c(=O)c(C(=O)O)cn(C3CC3)c12 (stereo not drawn) | PC3 cells | 3.5 |

Count: 3. Required value per item: SI PC3.
1. CCCCC/C=C\C/C=C\C/C=C\C/C=C\CCCC(=O)N1CCCC2CN(c3c(F)cc4c(=O)c(C(=O)O)cn(C5CC5)c4c3OC)CC21 (stereo not drawn) [Compound 13m]
2. C/C=C/C=C/C(=O)N1CCCC2CN(c3c(F)cc4c(=O)c(C(=O)O)cn(C5CC5)c4c3OC)CC21 (stereo not drawn)
3. CCCCCCCC/C=C\CCCCCCCCCCCC(=O)N1CCCC2CN(c3c(F)cc4c(=O)c(C(=O)O)cn(C5CC5)c4c3OC)CC21 (stereo not drawn)

1: 3.3; 2: 36.7; 3: 2.3

====

Test system: S. aureus ATCC 6538
Measurement protocol: MIC, twofold microdilution, standard strain
Format: cell-based
Setup conditions: Staphylococcus aureus, ATCC6538; 18 h of treatment; read-out: MIC S. aureus ATCC 6538
Quantity name: MIC (µg/mL)
Answers are plain numbers, in µg/mL.

# example entries with known answers
| Compound | MIC / µg/mL |
| --- | --- |
| CCCCCCCC/C=C\CCCCCCCCCCCC(=O)N1CCCC2CN(c3c(F)cc4c(=O)c(C(=O)O)cn(C5CC5)c4c3OC)CC21 (stereo not drawn) | 128 |
| CCCCC/C=C\C/C=C\C/C=C\CCCCC(=O)N1CCCC2CN(c3c(F)cc4c(=O)c(C(=O)O)cn(C5CC5)c4c3OC)CC21 (stereo not drawn) [Compound 12m] | 64 |
| CCCCC/C=C\C/C=C\C/C=C\C/C=C\CCCC(=O)N1CCCC2CN(c3c(F)cc4c(=O)c(C(=O)O)cn(C5CC5)c4c3OC)CC21 (stereo not drawn) [Compound 13m] | 16 |
| CCCCCCCC(=O)N1CCCC2CN(c3c(F)cc4c(=O)c(C(=O)O)cn(C5CC5)c4c3OC)CC21 (stereo not drawn) [Compound 15m] | 4 |
| CCCCCCCCCCCCCCCCCC(=O)N1CCCC2CN(c3c(F)cc4c(=O)c(C(=O)O)cn(C5CC5)c4c3OC)CC21 (stereo not drawn) [Compound 16m] | 64 |

So what does the record say about MIC for C/C=C/C=C/C(=O)N1CCCC2CN(c3c(F)cc4c(=O)c(C(=O)O)cn(C5CC5)c4c3OC)CC21 (stereo not drawn) ?
1

====

Test system: SW620 cells
Measurement protocol: MTT assay, SW620
Format: cell-based, human
Setup conditions: Homo sapiens, SW-620, 72 h, human metastatic colon cancer, 72 h, MTT, mean ± SD
Quantity name: IC50

Provide IC50 values for the following items, in order.
1. C/C=C/C(=O)N1CCCC2CN(c3c(F)cc4c(=O)c(C(=O)O)cn(C5CC5)c4c3OC)CC21 (centres unmarked)
2. C/C=C/C=C/C(=O)N1CCCC2CN(c3c(F)cc4c(=O)c(C(=O)O)cn(C5CC5)c4c3OC)CC21 (centres unmarked)
3. CCCCC/C=C\C/C=C\C/C=C\CCCCC(=O)N1CCCC2CN(c3c(F)cc4c(=O)c(C(=O)O)cn(C5CC5)c4c3OC)CC21 (centres unmarked) [Compound 12m]
4. CCCCCCCC/C=C/CCCCCCCC(=O)N1CCCC2CN(c3c(F)cc4c(=O)c(C(=O)O)cn(C5CC5)c4c3OC)CC21 (centres unmarked)

1. 24.8 µM
2. < 5 µM
3. 18.3 µM
4. 8.7 µM

List the reported IC50 of each molecule below.
1. COc1c(N2C[C@@H]3CCCN[C@@H]3C2)c(F)cc2c(=O)c(C(=O)O)cn(C3CC3)c12 [MXF, moxifloxacin, reference compound]
2. CCCCCCCC(=O)N1CCCC2CN(c3c(F)cc4c(=O)c(C(=O)O)cn(C5CC5)c4c3OC)CC21 (centres unmarked) [Compound 15m]
3. COc1c(N2CC3CCCN(C(C)=O)C3C2)c(F)cc2c(=O)c(C(=O)O)cn(C3CC3)c12 (centres unmarked) [Compound 14m]
4. CC/C=C\C/C=C\C/C=C\CCCCCCCC(=O)N1CCCC2CN(c3c(F)cc4c(=O)c(C(=O)O)cn(C5CC5)c4c3OC)CC21 (centres unmarked)
5. CC/C=C\C/C=C\C/C=C\C/C=C\C/C=C\C/C=C\CCC(=O)N1CCCC2CN(c3c(F)cc4c(=O)c(C(=O)O)cn(C5CC5)c4c3OC)CC21 (centres unmarked)

["54.5 µM", "4.7 µM", "18.4 µM", "15.6 µM", "9.4 µM"]

Batch of 2 molecules: report IC50 for each.
1. CCCCC/C=C\C/C=C\CCCCCCCC(=O)N1CCCC2CN(c3c(F)cc4c(=O)c(C(=O)O)cn(C5CC5)c4c3OC)CC21 (centres unmarked) [Compound 11m]
2. CCCCCCCC/C=C\CCCCCCCCCCCC(=O)N1CCCC2CN(c3c(F)cc4c(=O)c(C(=O)O)cn(C5CC5)c4c3OC)CC21 (centres unmarked)

1. 7.3 µM
2. 51.8 µM

====

Would you kindly list SI SW620 for each of these compounds?
Tested on: SW620 cells
Measurement protocol: MTT assay, SW620
Assay type: cell-based, human
Setup conditions: SI = IC50 for normal cell line (HaCaT)/IC50 cancer cell line

// solved cases for SI SW620 follow
| Compound | Quantity name | Reading |
| --- | --- | --- |
| CCCCCCCC/C=C\CCCCCCCCCCCC(=O)N1CCCC2CN(c3c(F)cc4c(=O)c(C(=O)O)cn(C5CC5)c4c3OC)CC21 (stereo not drawn) [Compound 7m] | SI SW620 | 1.6 |
| COc1c(N2CC3CCCN(C(=O)/C=C(\C)CCC=C(C)C)C3C2)c(F)cc2c(=O)c(C(=O)O)cn(C3CC3)c12 (stereo not drawn) [Compound 3m] | SI SW620 | 2.1 |

Turning to the following compound.
What does the record list as SI SW620 for COc1c(N2CC3CCCN(C(C)=O)C3C2)c(F)cc2c(=O)c(C(=O)O)cn(C3CC3)c12 (stereo not drawn) [Compound 14m] ?
4.7

====

Subject of test: S. aureus topoisomerase IV (Staphylococcus aureus, UniProt P0C1S7+P0C1U9)
Construct: purchased Inspiralis
Measurement protocol: S. aureus topoisomerase IV decatenation assay
Format: biochemical
Setup conditions: read-out: IC50 for Topo IV; inhibition of kDNA decatenation, 30 min at 37 °C
Quantity name: IC50

Entry CCC=CCC=CCC=CCC=CCC=CCC=CCCC(=O)N1CCN(c2cc3c(cc2F)c(=O)c(C(=O)O)cn3C2CC2)CC1 [Compound 8] has what IC50?
> 99.7 µM

====

Test system: S. epidermidis T 5253 845/19
Measurement protocol: MIC, clinical S. epidermidis strain
Format: cell-based
Setup conditions: Staphylococcus epidermidis, T5253845/19, quinolone-resistant, 18 h of treatment
Please respond with reported MIC for every item in the list.
Numbers only, in µg/mL.

| Compound | Unit symbol | MIC |
| --- | --- | --- |
| COc1c(N2C[C@@H]3CCCN[C@@H]3C2)c(F)cc2c(=O)c(C(=O)O)cn(C3CC3)c12 [MXF, moxifloxacin, reference compound] | µg/mL | 4 |
| COc1c(N2CC3CCCN(C(C)=O)C3C2)c(F)cc2c(=O)c(C(=O)O)cn(C3CC3)c12 (stereo not shown) [Compound 14m] | µg/mL | 32 |
| COc1c(N2CC3CCCN(C(=O)/C=C(\C)CCC=C(C)C)C3C2)c(F)cc2c(=O)c(C(=O)O)cn(C3CC3)c12 (stereo not shown) | µg/mL | 8 |

Now turn to the next compound.
I'd like to know its MIC. The compound in question is C=CCCCCC(=O)N1CCCC2CN(c3c(F)cc4c(=O)c(C(=O)O)cn(C5CC5)c4c3OC)CC21 (stereo not shown) [Compound 10m]
16

====

Subject of test: S. aureus topoisomerase IV (Staphylococcus aureus, UniProt P0C1S7+P0C1U9)
Construct: purchased Inspiralis
Measurement protocol: S. aureus topoisomerase IV decatenation assay
Assay type: biochemical
pIC50: −log10 of the molar value.
For each record, write down the corresponding pIC50.

Return reported pIC50 values for all items listed beneath this line.
1. C/C=C/C(=O)N1CCCC2CN(c3c(F)cc4c(=O)c(C(=O)O)cn(C5CC5)c4c3OC)CC21 (centres unmarked) [Compound 1m]
2. CC=CC=CC(=O)N1CCN(c2cc3c(cc2F)c(=O)c(C(=O)O)cn3C2CC2)CC1 [Compound 2]
3. CC(C)=CCCC(C)=CC(=O)N1CCN(c2cc3c(cc2F)c(=O)c(C(=O)O)cn3C2CC2)CC1 [Compound 3]
4. CC/C=C\C/C=C\C/C=C\C/C=C\C/C=C\C/C=C\CCC(=O)N1CCCC2CN(c3c(F)cc4c(=O)c(C(=O)O)cn(C5CC5)c4c3OC)CC21 (centres unmarked) [Compound 8m]

[3.89, 4.12, "< 3.88", "< 4.05"]

Hi there! I need pIC50 for each item below, if you can.
1. COc1c(N2CC3CCCN(C(=O)/C=C(\C)CCC=C(C)C)C3C2)c(F)cc2c(=O)c(C(=O)O)cn(C3CC3)c12 (centres unmarked) [Compound 3m]
2. COc1c(N2CC3CCCN(C(C)=O)C3C2)c(F)cc2c(=O)c(C(=O)O)cn(C3CC3)c12 (centres unmarked) [Compound 14m]
3. CC=CC(=O)N1CCN(c2cc3c(cc2F)c(=O)c(C(=O)O)cn3C2CC2)CC1 [Compound 1]
4. C/C=C/C=C/C(=O)N1CCCC2CN(c3c(F)cc4c(=O)c(C(=O)O)cn(C5CC5)c4c3OC)CC21 (centres unmarked) [Compound 2m]

< 3.94
3.87
< 3.80
< 3.89

src = paper PMC9181188
